SYSTEM UNDER TEST: T1, human C1s (human, UniProt P09871 16-688)
T1 construct: also called hC1s; serum-derived human C1s (CompTech)
T1 sequence: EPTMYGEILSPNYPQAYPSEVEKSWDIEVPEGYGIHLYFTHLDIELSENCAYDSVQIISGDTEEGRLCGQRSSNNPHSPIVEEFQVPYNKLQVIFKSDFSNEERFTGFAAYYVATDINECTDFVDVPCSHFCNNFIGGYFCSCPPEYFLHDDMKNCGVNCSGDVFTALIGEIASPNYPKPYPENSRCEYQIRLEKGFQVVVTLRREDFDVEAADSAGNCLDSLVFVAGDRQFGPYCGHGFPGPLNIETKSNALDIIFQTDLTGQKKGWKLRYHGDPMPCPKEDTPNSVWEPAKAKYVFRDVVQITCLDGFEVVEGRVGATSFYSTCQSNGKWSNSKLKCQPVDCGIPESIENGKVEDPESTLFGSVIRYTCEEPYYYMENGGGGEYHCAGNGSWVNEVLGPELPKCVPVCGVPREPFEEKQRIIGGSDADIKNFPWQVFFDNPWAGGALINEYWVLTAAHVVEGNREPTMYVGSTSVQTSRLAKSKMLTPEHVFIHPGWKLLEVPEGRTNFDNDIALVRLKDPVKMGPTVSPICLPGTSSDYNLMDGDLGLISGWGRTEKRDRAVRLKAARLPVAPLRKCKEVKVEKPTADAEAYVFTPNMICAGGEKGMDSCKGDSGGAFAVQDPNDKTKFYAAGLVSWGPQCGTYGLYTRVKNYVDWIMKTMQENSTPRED
METHOD DESCRIPTION: SPR; KD pH 5.8 3 uM Ca / KD pH 7.4 1.2 mM Ca
QUANTITY NAME: KD 5(-)/7(+)
Numbers only.

The examples below pair each entry with its known result.
{"columns": ["BINDER", "READOUT NUMBER"],
 "data": [
  ["C1_IPN92H0038-SG4GK/IPN93L0023-SK1 (antibody, human IgG4 S228P, kappa, name in Kabat numbering, V domains shown, also called IPN92H0038/IPN93L0023) VH: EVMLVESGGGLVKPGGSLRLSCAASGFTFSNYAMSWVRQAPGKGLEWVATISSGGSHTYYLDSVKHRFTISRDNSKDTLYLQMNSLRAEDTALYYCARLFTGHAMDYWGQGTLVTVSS VL: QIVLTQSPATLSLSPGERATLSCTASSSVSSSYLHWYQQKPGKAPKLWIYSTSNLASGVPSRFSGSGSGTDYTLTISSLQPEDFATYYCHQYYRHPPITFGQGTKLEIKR", 6.3],
  ["C1_IPN009VH2-SG4GK/IPN93L0031-SK1 (antibody, human IgG4 S228P, kappa, name in Kabat numbering, V domains shown, also called IPN009VH2/IPN93L0031) VH: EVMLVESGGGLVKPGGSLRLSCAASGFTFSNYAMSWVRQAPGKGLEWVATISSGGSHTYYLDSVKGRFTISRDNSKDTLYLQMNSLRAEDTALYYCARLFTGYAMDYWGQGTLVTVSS VL: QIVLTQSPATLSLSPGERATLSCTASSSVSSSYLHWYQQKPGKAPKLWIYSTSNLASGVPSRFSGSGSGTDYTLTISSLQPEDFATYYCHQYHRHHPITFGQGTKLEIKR", 29500]
]}

Now examine the next entry.
# binder C1_IPN92H0038-SG4GK/IPN93L0021-SK1 (antibody, human IgG4 S228P, kappa, name in Kabat numbering, V domains shown, also called IPN92H0038/IPN93L0021) VH: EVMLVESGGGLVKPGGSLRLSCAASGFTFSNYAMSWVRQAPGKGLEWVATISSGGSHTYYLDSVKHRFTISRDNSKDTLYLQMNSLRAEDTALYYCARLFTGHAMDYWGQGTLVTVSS VL: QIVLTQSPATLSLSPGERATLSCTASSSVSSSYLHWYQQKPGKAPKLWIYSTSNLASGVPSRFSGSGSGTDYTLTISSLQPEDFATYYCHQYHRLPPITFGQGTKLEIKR ; its KD 5(-)/7(+) = 10.6
